tested on: SF-268 CNS; test: NCI-60 one-dose screen, 48 h (100 = growth as untreated, 0 = no growth, -100 = all killed); settings: 10 µM unless noted
Compounds without any hit were thinned out: in the full panel of roughly 83,000, 20% have a hit.
parameterMeasured: growth (%)
Lab book: enter the figure in %, no units written.

As a guide, the following entries are already answered.
CCN(CC)c1ccc(N=O)cc1 : 59.1
CC(C)C(C(=O)NCCN1CCOCC1)N1C(=O)/C(=C/c2ccc(Br)cc2)SC1=S (centres undefined) : 94.2
Clc1ccc2c(NC3CCC(NC4CCCCC4)CC3)ccnc2c1 (centres undefined) : 84.7

Read the next record carefully.
### Prompt For Cc1ccc(-c2cc3nc(C(Cl)Cl)nc(-c4ccccc4C)n3n2)cc1 , what is its reported growth?
### Response 92.6
